The measured values listed here are drawn from the FLAb antibody collection.

test-summary: patients with anti-drug antibodies; higher = more immunogenic
measured-quantity: patients with anti-drug antibodies (%)
Just the number in %, nothing appended.

{"protein": "unnamed (protein) chain 1: EVQLVESGGGLVQPGGSLRLSCAASGYTFTSYVIHWVRQAPGKGLEWVGYNNPYNAGTNYNEKFKGRFTISSDKSKNTAYLQMNSLRAEDTAVYYCSRPTMLPWFAYWGQGTLVTVSS chain 2: DIQMTQSPSSLSASVGDRVTITCRASQAVSSAVAWYQQKPGKAPKLLIYSASHRYTGVPSRFSGSGSGTDFTLTISSLQPEDFATYYCQESYSTPWTFGQGTKVEIK", "measured-quantity": "patients with anti-drug antibodies", "reported-value": 4.7}
{"protein": "unnamed (protein) chain 1: QVQLVQSGAEVKKPGASVKVSCKASGYTFTNYGLSWVRQAPGQGLEWMGWISANNGDTNYGQEFQGRVTMTTDTSTSTAYMELRSLRSDDTAVYYCARDSSSSWARWFFDLWGRGTLVTVSS chain 2: SYVLTQPPSVSVAPGKTARITCGGNIIGSKLVHWYQQKPGQAPVLVIYDDGDRPSGIPERFSGSNSGNTATLTISRVEAGDEADYYCQVWDTGSDPVVFGGGTKLTVL", "measured-quantity": "patients with anti-drug antibodies", "reported-value": 0.5}
{"protein": "unnamed (protein) chain 1: QVQLVQSGAEVKKPGASVKVSCKAFGYPFTDYLLHWVRQAPGQGLEWVGWLNPYSGDTNYAQKFQGRVTMTRDTSISTAYMELSRLRSDDTAVYYCTRTTLISVYFDYWGQGTMVTVSS chain 2: DIQMTQSPSSVSASVGDRVTIACRASQNIRNILNWYQQRPGKAPQLLIYAASNLQSGVPSRFSGSGSGTDFTLTINSLQPEDFATYYCQQSYSMPRTFGGGTKLEIK", "measured-quantity": "patients with anti-drug antibodies", "reported-value": 0.9}

Challenge: Given unnamed (protein) chain 1: QVQLVQSGAEVKKPGSSVKVSCKASGGTFSYYWIEWVRQAPGQGLEWMGEILPGSGTTNPNEKFKGRVTITADESTSTAYMELSSLRSEDTAVYYCARADYYGSDYVKFDYWGQGTLVTVSS chain 2: DIQMTQSPSSLSASVGDRVTITCKASQHVITHVTWYQQKPGKAPKLLIYGTSYSYSGVPSRFSGSGSGTDFTLTISSLQPEDFATYYCQQFYEYPLTFGGGTKVEIK , state its recorded patients with anti-drug antibodies.
Response given: 9

Challenge: Given unnamed (protein) chain 1: EVQLVESGGGLVQPGGSLRLSCAASGYTFTSYNMHWVRQAPGKGLEWVGAIYPGNGDTSYNQKFKGRFTISVDKSKNTLYLQMNSLRAEDTAVYYCARVVYYSNSYWYFDVWGQGTLVTVSS chain 2: DIQMTQSPSSLSASVGDRVTITCRASSSVSYMHWYQQKPGKAPKPLIYAPSNLASGVPSRFSGSGSGTDFTLTISSLQPEDFATYYCQQWSFNPPTFGQGTKVEIK , state its recorded patients with anti-drug antibodies.
Response given: 1
